assay: Solubility pH 7.4; type: physicochemical; conditions: aqueous buffer, Table 3
# maps each entry to its solubility
READOUT NAME: solubility (µg/mL)

>>> measured("Cn1nccc1-c1ccc2ncc3c(c2c1)n(-c1cncnc1)c(=N)n3C")
36.3
>>> measured("Cn1c(=N)n(-c2cncnc2)c2c3cc(-c4cccc(F)c4)ccc3ncc21")
24.9

----------
experiment: Solubility pH 7.4; format: physicochemical; details: aqueous buffer, Table 1
// solubility lookup, one value per entry
READOUT NAME: solubility

>>> measured("Cc1cc(C#N)cc(-n2c(=N)n(C)c3cnc4ccc(-c5ccc(Cl)cc5)cc4c32)c1 [Compound 71]")
"< 1 µg/mL"
>>> measured("Cc1ccc(C#N)cc1-n1c(=N)n(C)c2cnc3ccc(-c4ccc(Cl)c(N)c4)cc3c21 [Compound 40]")
"> 43 µg/mL"
>>> measured("Cn1c(=N)n(-c2cccc(CN3CCNCC3)c2)c2c3cc(-c4ccc(Cl)cc4)ccc3ncc21 [Compound 85]")
"> 48 µg/mL"
>>> measured("Cn1c(=N)n(-c2ccccc2C#N)c2c3cc(-c4ccc(Cl)cc4)ccc3ncc21 [Compound 68]")
"> 41 µg/mL"
>>> measured("CCC(=O)N1CCC(n2c(=N)n(C)c3cnc4ccc(-c5ccc(Cl)cc5)cc4c32)CC1 [Compound 104]")
"> 44 µg/mL"
>>> measured("Cc1cc(N2CCCCC2)c(C#N)cc1-n1c(=N)n(C)c2cnc3ccc(-c4ccc(Cl)cc4)cc3c21 [Compound 112]")
"< 1 µg/mL"
>>> measured("Cc1cc(C#N)c(C#N)cc1-n1c(=N)n(C)c2cnc3ccc(-c4ccc(Cl)cc4)cc3c21 [Compound 135]")
"< 1 µg/mL"
>>> measured("Cc1cc(N2CCNCC2)c(C#N)cc1-n1c(=N)n(C)c2cnc3ccc(-c4ccc(Cl)cc4)cc3c21 [Compound 14]")
"< 1 µg/mL"
>>> measured("Cc1ccc(C#N)cc1-n1c(=N)n(C)c2cnc3ccc(-c4ccc(Cl)cn4)cc3c21 [Compound 44]")
"> 42 µg/mL"
>>> measured("Cc1ccc(C#N)cc1-n1c(=N)n(C)c2cnc3ccc(-c4ccc(F)c(O)c4)cc3c21 [Compound 39]")
"> 42 µg/mL"
